target: OR1I1 peptide/HLA-A*02:01 complex (recombinant) (human); test: SPR

binder	binding result
AS170036 VL1VH1-VHG108N (scFv) scFv: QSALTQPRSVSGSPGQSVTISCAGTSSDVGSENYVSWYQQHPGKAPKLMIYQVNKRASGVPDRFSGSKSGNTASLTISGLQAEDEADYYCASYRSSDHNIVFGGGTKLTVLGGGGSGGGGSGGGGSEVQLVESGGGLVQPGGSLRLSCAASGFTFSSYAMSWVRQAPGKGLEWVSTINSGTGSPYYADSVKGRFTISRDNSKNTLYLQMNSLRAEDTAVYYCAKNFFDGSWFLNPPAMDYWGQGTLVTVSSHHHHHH	no binding
AS170036 VL1VH1-VLH98P (scFv) scFv: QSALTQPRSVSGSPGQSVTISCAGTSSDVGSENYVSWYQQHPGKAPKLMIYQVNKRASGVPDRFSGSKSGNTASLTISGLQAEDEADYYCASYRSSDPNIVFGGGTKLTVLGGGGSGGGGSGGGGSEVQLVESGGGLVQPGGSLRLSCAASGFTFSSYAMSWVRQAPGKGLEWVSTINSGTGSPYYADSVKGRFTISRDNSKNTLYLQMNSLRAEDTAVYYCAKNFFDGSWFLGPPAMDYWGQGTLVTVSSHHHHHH	no binding
